ASSAYED SYSTEM: Tubulin (Bos taurus, UniProt Q6B856+Q862L2+Q862F3)
ASSAY SUMMARY: Inhibition of bovine brain tubulin assembly preincubated for 15 mins followed by GTP addition measured for 20 mins by spectrophotometry
Each record here notes measured IC50.
Give the value in µM but do not write µM after it.

COc1ccc(N(C)c2nc(C)nc3cc[nH]c23)cc1.Cl
10

Next, consider the following molecule.
Entry `COc1ccc(N(C)c2nc(C)nc3c(Cc4ccccc4)c[nH]c23)cc1.Cl` : reported IC50 = ?
21

----------
Tested on: HeLa
ASSAY SUMMARY: Growth inhibition of wild type human HeLa cells after 96 hrs incubation by sulforhodamine B technique
Format: functional, cell-based
We begin with a simple list: items and their reported pIC50.
Formally, pIC50 is defined as -log10 of the concentration c, with c in mol/L.

Look over these answered cases.
COc1ccc(/C=C\c2cc(OC)c(OC)c(OC)c2)cc1O
8.74
CC(=O)O[C@H]1C(=O)[C@@]2(C)[C@H]([C@H](OC(=O)c3ccccc3)[C@]3(O)C[C@H](OC(=O)[C@H](O)[C@@H](NC(=O)c4ccccc4)c4ccccc4)C(C)=C1C3(C)C)[C@]1(OC(C)=O)CO[C@@H]1C[C@@H]2O
8.28

Query molecule follows.
Can you share its pIC50? I mean this molecule: `COc1ccc(N(C)c2nc(C)nc3c(Cc4ccccc4)c[nH]c23)cc1.Cl`
6.55

----------
Tested on: NCI/ADR-RES
ASSAY SUMMARY: Growth inhibition of human NCI/ADR-RES cells overexpressing P-gp after 96 hrs incubation by sulforhodamine B technique
Type: functional, cell-based
pIC50 overview
Interpret pIC50 as the negative base-10 log of the concentration measured in mol/L.

COc1ccc(N(C)c2nc(C)nc3c(Cc4ccccc4)c[nH]c23)cc1.Cl
6.15

Shift focus to the following entry.
Recorded pIC50 for CC(=O)O[C@H]1C(=O)[C@@]2(C)[C@H]([C@H](OC(=O)c3ccccc3)[C@]3(O)C[C@H](OC(=O)[C@H](O)[C@@H](NC(=O)c4ccccc4)c4ccccc4)C(C)=C1C3(C)C)[C@]1(OC(C)=O)CO[C@@H]1C[C@@H]2O [PACLITAXEL] , please?
5.30

----------
Catalogue of pIC50 readings, one per entry.
ASSAY SUMMARY: Growth inhibition of human OVCAR8 cells after 96 hrs incubation by sulforhodamine B technique
Assay type: functional, cell-based
TEST PARAMETERS: OVCAR-8, 96 h
The scale used: pIC50 is minus the common logarithm of the concentration in molar units.

CC(=O)O[C@H]1C(=O)[C@@]2(C)[C@H]([C@H](OC(=O)c3ccccc3)[C@]3(O)C[C@H](OC(=O)[C@H](O)[C@@H](NC(=O)c4ccccc4)c4ccccc4)C(C)=C1C3(C)C)[C@]1(OC(C)=O)CO[C@@H]1C[C@@H]2O [PACLITAXEL]
8.00

Lab note: next molecule to report on.
What measured pIC50 goes with `COc1ccc(N(C)c2nc(C)nc3c(Cc4ccccc4)c[nH]c23)cc1.Cl` ?
6.00

----------
Test system: Chorioallantoic membrane
ASSAY SUMMARY: tissue or blood
TEST PARAMETERS: Gallus gallus
Description: Antiangiogenic activity in chicken chorioallantoic membrane assessed as inhibition of VEGF/bFGF-induced angiogenesis treated 8 hrs after VEGF/bFGF addition measured after 40 hrs by microscopy
MEASURE: IC50 (nM)
Value expressed in nM; do not type the unit.

Could you tell me which IC50 is on file for `COc1ccc(N(C)c2nc(C)nc3c(Cc4ccccc4)c[nH]c23)cc1.Cl` ?
2900
